Target: Bile acid receptor (Homo sapiens, UniProt Q96RI1)
Sequence (Q96RI1 whole entry): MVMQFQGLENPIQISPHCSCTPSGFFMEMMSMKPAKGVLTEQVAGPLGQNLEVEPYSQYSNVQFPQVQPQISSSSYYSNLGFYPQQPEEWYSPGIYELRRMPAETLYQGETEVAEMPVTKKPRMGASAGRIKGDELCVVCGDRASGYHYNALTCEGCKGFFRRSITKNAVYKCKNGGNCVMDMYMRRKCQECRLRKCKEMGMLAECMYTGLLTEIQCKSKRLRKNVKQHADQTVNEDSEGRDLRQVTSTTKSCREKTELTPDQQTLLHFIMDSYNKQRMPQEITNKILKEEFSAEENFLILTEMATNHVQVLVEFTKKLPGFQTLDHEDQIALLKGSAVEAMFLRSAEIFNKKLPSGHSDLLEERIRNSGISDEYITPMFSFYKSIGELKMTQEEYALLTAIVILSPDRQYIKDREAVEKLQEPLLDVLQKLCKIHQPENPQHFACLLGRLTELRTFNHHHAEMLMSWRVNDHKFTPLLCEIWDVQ
Assay: In Vitro FXR Assay (TK): SeedingCV-1 cells were seeded at a density of 2,000,000 cells in a T175 flask with DMEM+10% charcoal double-stripped FBS and incubated at 37° C. in 5% CO2 for 18 h (O/N).TransfectionAfter 18 h of incubation, the medium in the T175 flask was changed with fresh DMEM+10% charcoal super-stripped serum. In a polypropylene tube, 2500 μL OptiMEM (Life Technologies, Cat #31985-062) was combined with expression plasmids for hFXR, hRXR, TK-ECRE-luc and pCMX-YFP. The tube was then briefly vortexed and incubated at room temperature for 5 minutes. Transfection reagent (X-tremeGENE HP from Roche, Cat #06 366 236 001) was added to the OptiMEM/plasmid mixture vortexed and incubated at room temperature for 20 minutes. Following incubation, the transfection reagent/DNA mixture complex was added to cells in the T175 flask and the cells were incubated at 37° C. in 5% CO2 for 18 h (O/N).Test CompoundsCompounds were serially diluted in DMSO and added to transfected CV-1 cells. The cells were then incubated for 18 hrs. The next day cells were lysed and examined for luminescence.
pEC50: −log10 of the molar value.
// reported pEC50 per item

Example entries begin here.
COC(=O)c1ccc2c(N(C[C@H]3CC[C@H](c4ccc(C)cc4)CC3)C(=O)CC(C)(C)C)nccc2c1 : > 6.00
COC(=O)c1ccc2c(N(C[C@H]3CC[C@H](c4cccc(OC)c4)CC3)C(=O)CC(C)(C)C)nccc2c1 : > 6.00

As a next step, examine the molecule that follows.
stdin: Look up Bile acid receptor (Homo sapiens, UniProt Q96RI1) data: pEC50 of COC(=O)c1ccc2c(N(C[C@H]3CC[C@H](c4ccc(OC)c(C)c4)CC3)C(=O)C3CCCCC3)nccc2c1 , then report it.
stdout: > 6.00
